- Test system: RARa homodimer (NR concentration 270 nM)
- method description: PBM binding z-score (relative to random genomic background probes); higher = stronger binding; sequences stand for … in GC…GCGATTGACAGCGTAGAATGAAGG
reported property: PBM binding z-score

{"record sequence": "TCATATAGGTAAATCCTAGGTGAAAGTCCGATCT", "target under test": "RARa homodimer (NR concentration 270 nM)", "PBM binding z-score": 0.51}
{"record sequence": "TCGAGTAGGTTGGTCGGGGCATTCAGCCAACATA", "target under test": "RARa homodimer (NR concentration 270 nM)", "PBM binding z-score": -0.932}

For each of the sequences below, note its PBM binding z-score.
1. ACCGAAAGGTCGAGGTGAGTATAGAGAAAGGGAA
2. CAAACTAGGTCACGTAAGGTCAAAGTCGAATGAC

Reply:
[0.981, 1.84]

Quick one: give me PBM binding z-score for each item below, same order please.
1. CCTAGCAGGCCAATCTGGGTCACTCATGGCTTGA
2. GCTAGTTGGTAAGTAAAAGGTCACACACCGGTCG
3. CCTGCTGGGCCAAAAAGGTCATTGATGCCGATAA
4. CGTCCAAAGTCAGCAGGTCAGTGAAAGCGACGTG
5. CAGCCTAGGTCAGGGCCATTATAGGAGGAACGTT
6. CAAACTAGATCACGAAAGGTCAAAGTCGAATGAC

Reply:
1. -0.68
2. 2.74
3. 0.138
4. -0.229
5. 0.229
6. 2.84

Okay, here is my list. What is PBM binding z-score for each of these?
1. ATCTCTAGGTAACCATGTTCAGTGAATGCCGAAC
2. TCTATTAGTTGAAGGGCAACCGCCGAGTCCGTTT

Reply:
0.844
1.14

----------
- Test system: LXRb:RXRa (NR concentration 270 nM, RXRa partner concentration 90 nM)
- method description: PBM binding z-score (relative to random genomic background probes); higher = stronger binding; sequences stand for … in GC…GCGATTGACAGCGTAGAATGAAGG
reported property: PBM binding z-score
Answers are plain numbers.

Reference set (4 entries):
{"record sequence": "CTTCAAAGTTCAACTAAGGTAACGTAAAGCACGC", "PBM binding z-score": 4.06}
{"record sequence": "TCATATAGGTAATACAAGTGAAAGTCGGCATCTA", "PBM binding z-score": 1.17}
{"record sequence": "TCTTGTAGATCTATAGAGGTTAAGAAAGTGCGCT", "PBM binding z-score": 1.78}
{"record sequence": "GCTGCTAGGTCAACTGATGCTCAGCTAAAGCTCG", "PBM binding z-score": 1.88}

For each of the items listed, what is its PBM binding z-score?
1. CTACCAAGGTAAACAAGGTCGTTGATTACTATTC
2. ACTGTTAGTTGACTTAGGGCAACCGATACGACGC
3. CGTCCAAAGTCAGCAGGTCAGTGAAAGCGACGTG
4. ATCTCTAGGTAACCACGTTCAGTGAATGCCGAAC
5. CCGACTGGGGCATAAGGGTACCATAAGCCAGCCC
6. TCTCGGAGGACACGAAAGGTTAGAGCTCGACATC

Reply:
[1.56, 0.367, 0.578, -0.0295, -0.624, 0.782]

List reported PBM binding z-score for each of these sequences:
1. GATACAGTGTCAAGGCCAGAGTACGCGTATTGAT
2. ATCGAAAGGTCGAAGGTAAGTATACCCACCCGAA
3. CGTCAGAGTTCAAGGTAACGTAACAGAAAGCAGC
4. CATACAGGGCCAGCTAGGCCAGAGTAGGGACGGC
5. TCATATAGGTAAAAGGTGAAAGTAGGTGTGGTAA
6. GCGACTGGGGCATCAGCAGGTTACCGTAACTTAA

Reply:
1: -0.147; 2: 2.83; 3: 3.2; 4: -1.15; 5: 2.3; 6: 0.443

Items follow; give PBM binding z-score for each.
1. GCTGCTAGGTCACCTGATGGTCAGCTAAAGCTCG
2. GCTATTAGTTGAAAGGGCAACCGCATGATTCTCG
3. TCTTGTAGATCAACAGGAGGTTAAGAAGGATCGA
4. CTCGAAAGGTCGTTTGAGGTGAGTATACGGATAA
5. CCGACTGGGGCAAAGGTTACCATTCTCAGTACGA

Reply:
1: 1.66; 2: 0.909; 3: 0.854; 4: 3.96; 5: 2.02

Hi, could you look up PBM binding z-score for each item in my list?
1. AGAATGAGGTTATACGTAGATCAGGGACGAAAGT
2. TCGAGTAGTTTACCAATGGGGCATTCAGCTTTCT

Reply:
1: 1.55; 2: 0.423
